Listed next: entries and their corresponding % peak integration.
target: the molecule itself; assay: AUC
METRIC: % peak integration (%)

| PROTEIN | READOUT_UNIT | EXPERIMENTAL_RESULT |
| --- | --- | --- |
| PrfA E36R (natural protein, Listeria monocytogenes) NAQAEEFKKYLETNGIKPKQFHKKELIFNQWDPQRYCIFLYDGITKLTSISENGTIMNLQYYKGAFVIMSGFIDTETSVGYYNLEVISEQATAYVIKINELKELLSKNLTHFFYVFQTLQKQVSYSLAKFNDFSINGKLGSICGQLLILTYVYGKETPDGIKITLDNLTMQELGYSSGIAHSSAVSRIISKLKQEKVIVYKNSCFYVQNLDYLKRYAPKLDEWFYLACPATWGKLN | % | 86.8 |
| PrfA L120V (natural protein, Listeria monocytogenes) NAQAEEFKKYLETNGIKPKQFHKKELIFNQWDPQEYCIFLYDGITKLTSISENGTIMNLQYYKGAFVIMSGFIDTETSVGYYNLEVISEQATAYVIKINELKELLSKNLTHFFYVFQTVQKQVSYSLAKFNDFSINGKLGSICGQLLILTYVYGKETPDGIKITLDNLTMQELGYSSGIAHSSAVSRIISKLKQEKVIVYKNSCFYVQNLDYLKRYAPKLDEWFYLACPATWGKLN | % | 92.3 |
| PrfA*^sup (G145S/E173G) (natural protein, Listeria monocytogenes) NAQAEEFKKYLETNGIKPKQFHKKELIFNQWDPQEYCIFLYDGITKLTSISENGTIMNLQYYKGAFVIMSGFIDTETSVGYYNLEVISEQATAYVIKINELKELLSKNLTHFFYVFQTLQKQVSYSLAKFNDFSINGKLGSICSQLLILTYVYGKETPDGIKITLDNLTMQGLGYSSGIAHSSAVSRIISKLKQEKVIVYKNSCFYVQNLDYLKRYAPKLDEWFYLACPATWGKLN | % | 81.3 |
| PrfA^F29M (natural protein, Listeria monocytogenes) NAQAEEFKKYLETNGIKPKQFHKKELIMNQWDPQEYCIFLYDGITKLTSISENGTIMNLQYYKGAFVIMSGFIDTETSVGYYNLEVISEQATAYVIKINELKELLSKNLTHFFYVFQTLQKQVSYSLAKFNDFSINGKLGSICGQLLILTYVYGKETPDGIKITLDNLTMQELGYSSGIAHSSAVSRIISKLKQEKVIVYKNSCFYVQNLDYLKRYAPKLDEWFYLACPATWGKLN | % | 96 |

Cited source for all entries: paper PMC3443378
